Data credit: patent US6004967A

System: 3T3-EGFR cells
Assay Method Text: EGF-driven DNA replication (BrdU incorporation)
Assay type: cell-based
Assay Setup: Mus musculus, 20 hours
Measurement Kind: IC50

compound="COc1cc2ncnc(Nc3cccc(Br)c3)c2cc1OC [A1]" measurement_kind=IC50 test_value="30 nM"

====

Assay Method Text: in vivo
Assay Setup: mouse, in vivo; single dose, IP, BALB/c female mice, 7 days
The reader will find reported LD50 at 168 h values listed item by item below.
Measurement Kind: LD50 at 168 h

entry_smiles=COc1cc2ncnc(Nc3cccc(C#N)c3)c2cc1OC test_value="> 153 mg/kg"
entry_smiles=Cc1ccc2ncnc(Nc3cccc(C(F)(F)F)c3)c2c1 test_value="> 400 mg/kg"
entry_smiles=COc1cc2ncnc(Nc3cccc(Cl)c3)c2cc1OC test_value="> 200 mg/kg"
entry_smiles=Cc1ccc2ncnc(Nc3cccc(Cl)c3)c2c1 test_value="> 400 mg/kg"
